- Tested target: human alpha-CGRP (L-peptide) (Homo sapiens) (UniProt P06881)
- Sequence: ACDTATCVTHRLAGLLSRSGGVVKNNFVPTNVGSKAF
- Procedure details: SPR
- Condition set: L-RNA; 37 C

[
  {
    "Sequence data": "CCGUGCUGUCGGAGACUACUCGUCGAGUAGAAAUAGGUCCCCUCCCACGG [226-F2-001 (L)]",
    "Tested target": "human alpha-CGRP (L-peptide) (Homo sapiens) (UniProt P06881)",
    "Kd / nM": 2.62
  },
  {
    "Sequence data": "CGUGCUGUCGGAGACUACUCGUCGAGUAGAAAUAGGUCCCCUCCCACG [212-G1-001 (L)]",
    "Tested target": "human alpha-CGRP (L-peptide) (Homo sapiens) (UniProt P06881)",
    "Kd / nM": 5.12
  }
]
